Below, each of the compounds is paired with its reported GI50 value.
# System: BT-549 breast
# protocol-description: NCI tumour cell line growth inhibition, 48 h

The following compounds have reported results that may help.
# mol-smiles, reported
records = [
    ("COc1ccccc1CNCCCN1C(=O)c2ccc3c4c(ccc(c24)C1=O)C(=O)N(CCCN)C3=O", "1.58 µM"),
    ("Cc1nn(-c2ccc([N+](=O)[O-])cc2)c2ncnc(N/N=C/c3ccccc3O)c12", "0.431 µM"),
    ("C#CCNCCN1C(=O)c2ccc3c4c(ccc(c24)C1=O)C(=O)N(CCNCC#C)C3=O", "7.27 µM"),
    ("COc1ccc(/C=C(\\C(=O)NCc2cccnc2)S(=O)(=O)c2ccccc2)cc1OC", "2.45 µM"),
]

Read off the recorded GI50 for "O=c1c(O)c(-c2ccc(O)c(O)c2)oc2cc(O)cc(O)c12" 13.3 µM
